The reported measurements were obtained from patent US8153805B2.

Target: human CCR2B (Homo sapiens)
Construct: host or cells: CHO-K1 (CHOK1-CCR2B-A5)
Sequence (P41597 1-360 isoform P41597-2): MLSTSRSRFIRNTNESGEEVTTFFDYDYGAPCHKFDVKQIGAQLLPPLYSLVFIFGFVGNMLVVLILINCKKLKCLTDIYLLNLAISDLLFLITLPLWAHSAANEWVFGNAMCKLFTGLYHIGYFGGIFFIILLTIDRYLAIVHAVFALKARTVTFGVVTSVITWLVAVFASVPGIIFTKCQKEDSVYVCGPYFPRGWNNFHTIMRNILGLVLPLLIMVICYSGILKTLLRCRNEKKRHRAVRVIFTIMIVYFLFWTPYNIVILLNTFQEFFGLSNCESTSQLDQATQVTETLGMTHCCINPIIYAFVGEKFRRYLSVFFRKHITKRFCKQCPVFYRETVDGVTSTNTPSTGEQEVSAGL
Experiment: Calcium mobilization assay (FLIPR, MCP-1 stimulated CHOK1-CCR2B-A5 cells)
Type: cell-based
Details: antagonist activity vs 20 nM MCP-1, CHOK1-CCR2B-A5 cells
Description: Calcium Mobilization Assay […] Test compounds were added to the assay plate and agonist activity was monitored as fluorescence for 80 seconds with a FLIPR (488 nm excitation; 510-570 nm emission; Molecular Devices). After 20-30 min. of incubation at 30° C., 20 nM MCP-1 (R&D; Roche) was added and fluorescence was monitored again for 80 seconds. Increases in intracellular calcium are reported as maximum fluorescence after agonist exposure minus basal fluorescence before exposure. […]
MEASUREMENT KIND: IC50 (nM)

Cc1nc(-c2cccc(C(F)(F)F)c2)nc(C2CC2)c1C(=O)N1CCC(N2CCC[C@H]2CO)CC1
990
Cc1nc(-c2cccc(C(F)(F)F)c2)nc(C2CC2)c1C(=O)N1CCC(N2CCCC2)CC1
490
Cc1cc(-c2cccc(C(F)(F)F)c2)cc(-c2cccnc2)c1C(=O)N1CCC(N2CCCC2)CC1
16
Cc1cc(-c2cccc(C(F)(F)F)c2)nc(O)c1C(=O)N1CCC(N2CCCC2)CC1
17
Cc1cc(-c2cccc(C(F)(F)F)c2)cc(C)c1C(=O)N1CCC(N2CCCC2)CC1
21
Cc1cc(-c2cccc(C(F)(F)F)c2)cc(O)c1C(=O)N1CCC(N2CCCC2)CC1
48

[A] Cc1cc(-c2cccc(C(F)(F)F)c2)cc(C)c1C(=O)N1CCC(N2CCC(O)CC2)CC1
[B] Cc1cc(-c2cccc(OC(F)(F)F)c2)nc(C)c1C(=O)N1CCC(N2CCCC2)CC1
Prompt: # compare IC50 for A vs B ; return the one with the smaller value Output the label that corresponds to your choice.
Response: A
